B1: HDV Ribozyme (parent)
chain: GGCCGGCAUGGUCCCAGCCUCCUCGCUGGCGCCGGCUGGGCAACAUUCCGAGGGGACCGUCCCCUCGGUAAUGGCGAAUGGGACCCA

variants of: B1; assay: self-cleavage, relative activity (ratio to wild type); higher = more cleavage; co-transcriptional
Please map values of self-cleavage to classes as shown: LOW (below 0.1), MID (0.1 to below 0.7), HIGH (0.7 or more)

1. GGCCGGCAUGGUCCCAGUCUCCCCGCUGGCGCCGGCUGGGCAACAUUCCGAGGGGACCGUCCCCUCGGUAAUGGCGAAUGGGACCCA [C18U U23C]; MID

Q) Just checking, what class would you give GGCGGGCAUGGUCCCAGCCUCCUCGCUGGCGUCGGCUGGGCAACAUUCCGAGGGGACCGUCCCCUCGGUAAUGGCGAAUGGGACCCA [C4G C32U] here?
A) LOW

Q) Which category does the recorded self-cleavage put GGCCGGCAUCGUCCCAGCCUCCUCGCUUGCGCCGGCUGGGCAACAUUCCGAGGGGACCGUCCCCUCGGUAAUGGCGAAUGGGACCCA [G10C G28U] in?
A) MID

Q) // bin(item) where item = GGCCGGCAUGGUCCCAGCCUCCUCGCUGGCGCCGGCUGGGCAACAUUCCGAGGGGACCGUCCCCUCCGUAAUGGCGAAUGGGGCCCA [G67C A83G]
A) MID

Q) Category lookup for the variant GGCCGGCAUGGUGCCAGCCUCCUCGCUAGCGCCGGCUGGGCAACAUUCCGAGGGGACCGUCCCCUCGGUAAUGGCGAAUGGGACCCA [C13G G28A]
A) LOW

Q) Record GGCCGGCAUGGUCCCAGCCUCCUCGCUGGCGCCGGCUGGGCAACAUUCCGAGGAGACCGGCCCCUCGGUAAUGGCGAAUGGGACCCA [G54A U60G] — which class?
A) HIGH

Q) In plain terms, what class is GGCCGGCAUGGUCCCAGCCUCCUCGCUGGCGCCGGCUGGGCAACAUUCCGAGGGGACCGUCCUCUCGGUAAUGGCGAAUGGGGCCCA [C63U A83G] ?
A) MID

Q) Lab note: sort GGCCGGCAUGGUCCCAGCCUCCUCGCUGGCGCCGGCUGGGCAACAUUCCGAGGGGACAGUCCCCUCGGUAAUGGCGAUUGGGACCCA [C58A A78U] into the matching self-cleavage band.
A) MID

Q) Class (by measured self-cleavage) for GGCCGUCAUGGUCCCAGCCUCCUCGCUGGCGCCGGCUGGGCAACAUUCCGAGGGGGCCGUCCCCUCGGUAAUGGCGAAUGGGACCCA [G6U A56G]
A) MID

Q) Tag the class for GGCCGGCAUGGUCCCAGCCUCCUCGCUGGCGCCGGCUGGGCAUCAUUCCGAGGGGACCGUCCCCUCGGUAAUGGCGAAUGGGACUCA [A43U C85U]
A) MID
